- Test system: TK-10 renal
- RUN DESCRIPTION: NCI tumour cell line growth inhibition, 48 h; in the data active means GI50 below about 0.43 µM; inactive means the rest
Give your call using only these classes: 1.0 (active), 0.0 (inactive)

COMPOUND	CLASS
C[C@@H](NC(=O)[C@@H](CC(=O)N1CCC(N2CCCCC2)CC1)N1C(=O)[C@@H](N2C(=O)OC[C@@H]2c2ccccc2)[C@H]1/C=C/c1cccc(Cl)c1)c1ccccc1	0.0
COc1ccc2c3c(c4ccccc4cc13)C(=O)N(CCN(C)CCN)C2=O	1.0
OC(C1CO1)C(O)C1CO1 (stereo not given)	0.0
Nc1nc2ccc3[nH]ncc3c2c2c1CCCC2	0.0

Now turn to the next compound.
Q: GET /call?item= `CCCCOC(=O)c1ccc(NC(=O)CCl)cc1` returns the recorded outcome of this test.
Ans: 0.0

* * *

- Tested on: UACC-257 melanoma
- RUN DESCRIPTION: NCI tumour cell line growth inhibition, 48 h
As shown below, each of these molecules has a reported TGI value.

Some solved entries appear below for comparison.
MOLECULE	TARGET OR SYSTEM	TGI
Oc1ccc2ccccc2c1C1NN=C(c2ccccc2)S1 (stereo not drawn)	UACC-257 melanoma	12 µM
O=C1c2cc(-c3ccccc3)ccc2-c2c1c1ccc([N+](=O)[O-])cc1c(=O)n2CCCBr	UACC-257 melanoma	> 50 µM
COc1ccc(-c2cn(-c3cccc(C(=O)/C=C/c4ccc(O)c(OC)c4)c3)c(=O)[nH]2)cc1	UACC-257 melanoma	39.3 µM
COc1ccc(S(=O)(=O)Nc2ccc(-c3csc(N4C(=O)/C(=C/c5ccccc5)N=C4c4ccccc4)n3)cc2)cc1Cl	UACC-257 melanoma	> 100 µM
O=C(NN1C(=O)CSC1c1ccco1)c1ccncc1 (stereo not drawn)	UACC-257 melanoma	> 100 µM

Q: Name the recorded TGI for O=C(NCCCCCCNC(=O)n1cc(F)c(=O)[nH]c1=O)NCCCOCCOCCOCCOCCOCCOCCOCCOCCOCCOCCOCCOCCOCCOCCOCCOCCOCCOCCOCCOCCOCCCNC(=O)C(O)C(O)C(OC1OC(CO)C(O)C(O)C1O)C(O)CO (stereo not drawn) .
Ans: > 100 µM

Q: Reported TGI, molecule `O=S(=O)(O)c1cc(Nc2ccnc3ccccc23)c2c(S(=O)(=O)O)cc(S(=O)(=O)O)cc2c1` : ____
Ans: > 100 µM

Q: So what does the record say about TGI for `N#Cc1ccc(Nc2cnc3ccc(N)cc3n2)cc1` ?
Ans: > 100 µM

* * *

- Test system: HL-60(TB) leukemia
- RUN DESCRIPTION: NCI tumour cell line growth inhibition, 48 h
ASSAY READOUT: TGI

Below: 5 molecules and their reported TGI.
MOLECULE	ASSAY READOUT	RESULT
CC(O)c1cc2c(s1)C(=O)c1scc(C(C)O)c1C2=O (stereo not drawn)	TGI	> 100 µM
Cc1ccc(S(=O)(=O)C2c3nc4ccccc4cc3-c3nc4ccccc4nc32)cc1 (stereo not drawn)	TGI	> 100 µM
O=C(NC12CC3CC(CC(C3)C1)C2)C(=O)c1c[nH]c2ccc([N+](=O)[O-])cc12	TGI	> 100 µM
CC1C2CC(CC2N)C1(C)C (stereo not drawn)	TGI	> 100 µM
O=c1oc2c/c(=C\c3ccccc3)c(=O)c3cccc1c3-2	TGI	71.1 µM

Q: Entry O=CC(Br)C(Br)c1ccccc1 (stereo not drawn) : reported TGI = ?
Ans: 2.32 µM

Q: Fill in the blank: the reported TGI of `COc1c2c(c(CC=C(C)C)c3oc(=O)c(-c4ccc(O)cc4)c(O)c13)OC(C)(C)C=C2` is ____.
Ans: 51 µM

Q: Bench note: what TGI did COC12OC3CC4(C)C(=CC3OC(OC(C)C1O)C2O)CCC1C4CCC2(C)C(c3ccc(=O)oc3)CCC12O (stereo not drawn) show?
Ans: 0.00215 µM
